- STUDY SYSTEM: Carboxy-terminal domain RNA polymerase II polypeptide A small phosphatase 1 (Homo sapiens) (UniProt Q9GZU7)
- Sequence (Q9GZU7 76-261 limits assumed): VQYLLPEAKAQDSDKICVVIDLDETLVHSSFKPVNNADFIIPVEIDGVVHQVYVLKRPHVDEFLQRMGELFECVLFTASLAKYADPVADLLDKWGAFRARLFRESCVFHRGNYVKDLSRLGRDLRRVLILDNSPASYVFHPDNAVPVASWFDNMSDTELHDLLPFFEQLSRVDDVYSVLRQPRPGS
- MEASUREMENT PROTOCOL: Scp-1 phosphatase inhibitors, retest, confirmation, biochemical, colorimetric, single concentration (AID 540281)
- RUN PARAMETERS: recombinant SCP-1 catalytic domain, phosphate release, malachite green absorbance; at 20 µM
Among all 2,500 compounds or so, about 1,500 (60%) were called active.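 Rule for the calls: active = inhibition of at least 30% at 20 µM; inactive = the rest.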 So high a share suggests a set chosen from earlier hits. The list is a sample of the results. Non-standard residues stand in square brackets, D forms with d. Residues, ends and D or L forms follow the SMILES beside them. ξ: configuration not given here. ξM = CSCCC(N)C(=O)O
Outcomes: YES (active), NO (inactive)

COMPOUND: COC(=O)c1ccccc1NC(=O)C1(S(=O)(=O)c2ccc(Cl)cc2)CC1
QUALITATIVE LABEL: NO

COMPOUND: CNS(=O)(=O)c1cccc(C(=O)OCC(=O)N2c3ccccc3NC(=O)C2(C)C)c1
QUALITATIVE LABEL: YES

COMPOUND: O=C(CN1CCN(S(=O)(=O)/C=C/c2ccccc2)CC1)NC(=O)NCc1ccco1
QUALITATIVE LABEL: NO

COMPOUND: C=C1c2cccc(OC)c2O[C@H](C(=O)OCC)[C@@H]1CCCCCC
QUALITATIVE LABEL: YES

COMPOUND: O=C(c1ccc(CS(=O)(=O)c2ccccc2)o1)N1CCN(c2ccccc2)CC1
QUALITATIVE LABEL: YES

COMPOUND: O=c1c2cc(-c3ccccc3)sc2nc2n1N=C(c1cccs1)CS2
QUALITATIVE LABEL: YES

COMPOUND: Cc1c([N+](=O)[O-])c(N)nn1C
QUALITATIVE LABEL: NO

COMPOUND: COc1ccc(OCC(=O)NNC(=O)c2ccc(-c3ccccc3)cc2)cc1
QUALITATIVE LABEL: YES

COMPOUND: O=C(Cn1cc(/C=N/NC(=O)c2cccc(C(F)(F)F)c2)c2ccccc21)Nc1ccc(F)cc1
QUALITATIVE LABEL: YES

COMPOUND: O=C(Nc1cccc(F)c1)[C@@H]1CCCN1
QUALITATIVE LABEL: NO

COMPOUND: O=C(O)c1ccc(N/N=C/c2ccc3ncccc3c2)cc1
QUALITATIVE LABEL: YES

COMPOUND: ON=C1/C(=N\O)CC2(C/C1=N/O)OCCO2
QUALITATIVE LABEL: YES

COMPOUND: COC(=O)CNC(=O)C(CCSC)NC(C)=O (stereo not given) (Ac-[ξM]-Gly-OMe)
QUALITATIVE LABEL: NO

COMPOUND: CCOc1ccccc1/C=c1\sc2nc(-c3ccco3)nn2c1=O
QUALITATIVE LABEL: YES

COMPOUND: O=C(Nc1cccnc1)c1cc2cc(Br)ccc2oc1=O
QUALITATIVE LABEL: YES

COMPOUND: COc1cc(/C=C/C2=CC(C)(C)NC(=S)N2)cc(OC)c1OC
QUALITATIVE LABEL: NO

COMPOUND: Cc1ccc(/C=C/C(=O)Nc2ccc([N+](=O)[O-])c(NC(=O)/C=C/c3ccc(C)o3)c2)o1
QUALITATIVE LABEL: YES

COMPOUND: Cc1ccc(CN2CCN(c3ccccc3Cl)CC2)o1
QUALITATIVE LABEL: NO

COMPOUND: O=C(NN1C(=O)C2C3C=CC(O3)C2C1=O)c1ccccc1 (stereo not given)
QUALITATIVE LABEL: NO

COMPOUND: CC(=O)Nc1ccccc1Sc1ccc2c3c(cccc13)C(=O)N(c1ccc(C)cc1)C2=O
QUALITATIVE LABEL: NO

COMPOUND: COc1ccc(/C=C/C(=O)OCC(=O)NC2CCCCCC2)cc1OC
QUALITATIVE LABEL: YES

COMPOUND: COc1ccc(NC(=O)CN(C)C(=O)/C=C/c2cn(Cc3ccccc3)nc2-c2cccnc2)cc1
QUALITATIVE LABEL: YES

COMPOUND: N/C(=N\OC(=O)N1c2ccccc2Sc2ccccc21)c1ccc(Br)cc1
QUALITATIVE LABEL: YES

COMPOUND: COC(=O)c1ccc(-c2c(-c3ccccc3)ncc3cc(OC)c(OC)cc23)cc1
QUALITATIVE LABEL: NO

COMPOUND: CO/N=C(\C(=O)N[C@@H]1C(=O)N2C(C(=O)O)=C(COC(C)=O)CS[C@H]12)c1csc(N)n1 (stereo in doubt)
QUALITATIVE LABEL: YES

COMPOUND: Cc1ccc(C(=O)NNC(=O)c2cc3cc4ccccc4nc3s2)cc1
QUALITATIVE LABEL: YES

COMPOUND: O=C(COC(=O)c1ccccc1O)NCc1ccco1
QUALITATIVE LABEL: YES

COMPOUND: CN(CC(=O)Nc1cccc(F)c1)C(=O)C1CC(=O)N(CCc2ccccc2)C1 (stereo not given)
QUALITATIVE LABEL: NO

COMPOUND: O=C(COC(=O)c1cnc(Cl)c(Cl)c1)NCc1ccco1
QUALITATIVE LABEL: YES

COMPOUND: C=Cc1ccc(C(=O)N2CCCC(CCC(=O)N3CCN(c4ccccn4)CC3)C2)cc1 (stereo not given)
QUALITATIVE LABEL: YES

COMPOUND: Cc1ccc(NC(=O)COC(=O)C2C3CC4OC(=O)C2C4C3)cc1Cl (stereo not given)
QUALITATIVE LABEL: NO

COMPOUND: O=C1NN(c2ccccc2)C(=O)/C1=C/c1ccc(-c2cccc(C(=O)O)c2)o1
QUALITATIVE LABEL: YES

COMPOUND: O=C(Nc1cccc(F)c1)c1cc(-c2ccco2)nc2ccccc12
QUALITATIVE LABEL: YES

COMPOUND: COc1ccc(S(=O)(=O)c2c[nH]c(=S)[nH]c2=O)cc1Cl
QUALITATIVE LABEL: YES

COMPOUND: COc1ccc(OC)c(NC(=O)CSc2nc(-c3ccccc3)cc(=O)[nH]2)c1
QUALITATIVE LABEL: NO

Origin of the recorded values: PubChem BioAssay AID540281
